For each record, write down the corresponding viability at 24 h, 12.5 ug/ml.
# test.summary: Cytotoxicity against mouse RAW264.7 cells assessed as cell survival at 12.5 ug/ml incubated for 24 hrs by CCK8 assay relative to control
# Format: toxicity, cell-based
# particulars: at 12.5 µg/mL, read-out: Activity
One number for each entry, in %.

Cc1cccc(NC(=O)c2ccc3[nH]c4c5[n+](ccc4c3c2)-c2ccccc2C5=O)c1.[Br-] = 104
CC(C)c1cccc(NC(=O)c2ccc3[nH]c4c5[n+](ccc4c3c2)-c2ccccc2C5=O)c1.[Br-] = 98.8

Hi! Can you tell me viability at 24 h, 12.5 ug/ml for each of these molecules?
1. CCCCCCCCNC(=O)c1ccc2[nH]c3c4[n+](ccc3c2c1)-c1ccccc1C4=O.[Br-]
2. COc1ccccc1NC(=O)c1ccc2[nH]c3c4[n+](ccc3c2c1)-c1ccccc1C4=O.[Br-]

result:
1: 103; 2: 14.6

###

# Tested on: Staphylococcus aureus
# test.summary: Antibacterial activity against methicillin-resistant Staphylococcus aureus ATCC43300 assessed as bacterial growth inhibition incubated for 18 to 24 hrs by microbroth dilution method
# Assay type: functional
# particulars: time 18-24 hrs
reported.endpoint: MIC (µg/mL)
Give bare numbers, in µg/mL.

Please review the following examples before continuing.
Cc1ccc(NC(=O)c2ccc3[nH]c4c5[n+](ccc4c3c2)-c2ccccc2C5=O)cc1.[Br-] = 0.78
CC(C)c1ccc(NC(=O)c2ccc3[nH]c4c5[n+](ccc4c3c2)-c2ccccc2C5=O)cc1.[Br-] = 0.195
O=C(Nc1ccccc1)c1ccc2[nH]c3c4[n+](ccc3c2c1)-c1ccccc1C4=O.[Br-] = 12.5

Could you now look at the following molecule, please?
query: # get_value(readout='MIC', item= `CCCCCCc1ccc(NC(=O)c2ccc3[nH]c4c5[n+](ccc4c3c2)-c2ccccc2C5=O)cc1.[Br-]` )
result: 25

###

# Tested on: Staphylococcus aureus
# test.summary: Antibacterial activity against methicillin-resistant Staphylococcus aureus ATCC43300 assessed as filamentation on cell surface at 4 times MIC incubated for 2 hrs by SEM analysis
# Assay type: functional, organism-based
Active and inactive are the calls of the source. The rule behind the calls is not given here.
reported.endpoint: Activity

CCCCCCCCNC(=O)c1ccc2[nH]c3c4[n+](ccc3c2c1)-c1ccccc1C4=O.[Br-] = Active
Cc1cccc(NC(=O)c2ccc3[nH]c4c5[n+](ccc4c3c2)-c2ccccc2C5=O)c1.[Br-] = Active
COc1ccccc1NC(=O)c1ccc2[nH]c3c4[n+](ccc3c2c1)-c1ccccc1C4=O.[Br-] = Active
CC(C)c1cccc(NC(=O)c2ccc3[nH]c4c5[n+](ccc4c3c2)-c2ccccc2C5=O)c1.[Br-] = Active

###

# System: Staphylococcus aureus
# test.summary: Antibacterial activity against methicillin-resistant Staphylococcus aureus ATCC43300 assessed as bacterial growth inhibition incubated for 18 to 24 hrs by microbroth dilution method
# Format: functional
# particulars: time 18-24 hrs
reported.endpoint: MIC (µg/mL)
Give bare numbers, in µg/mL.

Please review the following examples before continuing.
Cc1ccccc1NC(=O)c1ccc2[nH]c3c4[n+](ccc3c2c1)-c1ccccc1C4=O.[Br-] = 25
CC(C)c1ccccc1NC(=O)c1ccc2[nH]c3c4[n+](ccc3c2c1)-c1ccccc1C4=O.[Br-] = 12.5
COc1ccccc1NC(=O)c1ccc2[nH]c3c4[n+](ccc3c2c1)-c1ccccc1C4=O.[Br-] = 0.049
CCCCCCNC(=O)c1ccc2[nH]c3c4[n+](ccc3c2c1)-c1ccccc1C4=O.[Br-] = 0.39
O=C(O)c1cn(C2CC2)c2cc(N3CCNCC3)c(F)cc2c1=O [CIPROFLOXACIN] = 0.78

Hi! Can you tell me MIC for each of these compounds?
1. CCCCc1ccc(NC(=O)c2ccc3[nH]c4c5[n+](ccc4c3c2)-c2ccccc2C5=O)cc1.[Br-]
2. CCCCCCCCc1ccc(NC(=O)c2ccc3[nH]c4c5[n+](ccc4c3c2)-c2ccccc2C5=O)cc1.[Br-]
3. O=C(NC1CCCCC1)c1ccc2[nH]c3c4[n+](ccc3c2c1)-c1ccccc1C4=O.[Br-]

result:
[3.12, 25, 0.78]

Hi! Can you tell me MIC for each of these compounds?
1. COc1cccc(NC(=O)c2ccc3[nH]c4c5[n+](ccc4c3c2)-c2ccccc2C5=O)c1.[Br-]
2. Cc1cccc(NC(=O)c2ccc3[nH]c4c5[n+](ccc4c3c2)-c2ccccc2C5=O)c1.[Br-]

result:
1. 0.39
2. 0.098

###

For each record, write down the corresponding MIC.
# Test system: Staphylococcus aureus
# test.summary: Antibacterial activity against methicillin-resistant Staphylococcus aureus ATCC43300 assessed as bacterial growth inhibition incubated for 18 to 24 hrs by microbroth dilution method
# Assay type: functional
# particulars: time 18-24 hrs

Please review the following examples before continuing.
CCCCNC(=O)c1ccc2[nH]c3c4[n+](ccc3c2c1)-c1ccccc1C4=O.[Br-] = 6.25 µg/mL
CC(C)c1cccc(NC(=O)c2ccc3[nH]c4c5[n+](ccc4c3c2)-c2ccccc2C5=O)c1.[Br-] = 0.098 µg/mL
CCCCCCCCNC(=O)c1ccc2[nH]c3c4[n+](ccc3c2c1)-c1ccccc1C4=O.[Br-] = 0.098 µg/mL

Could you now look at the following compound, please?
query: # get_value(readout='MIC', item= `COc1ccc(NC(=O)c2ccc3[nH]c4c5[n+](ccc4c3c2)-c2ccccc2C5=O)cc1.[Br-]` )
result: 0.39 µg/mL
